Entries and their measured composite z-score follow.
System: Sonic hedgehog protein (Shh)
Assay: small-molecule binders of Shh protein, primary screen, biochemical, small-molecule microarray, 635/667 nm fluorescence (AID 1151);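 note: Shh protein binding to compounds spotted on small-molecule microarray slides; score combines spot fluorescence intensity with signal-to-noise across triplicate slides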
Conditions: small-molecule microarray binding, 635 nm fluorescence; higher = more signal
PROPERTY MEASURED: composite z-score

compound=COC(=O)c1c(CC[C@@H](CO)NC(=O)N2CCC[C@H]2Cn2cc(Cc3ccccc3)nn2)oc(C(C)=O)c1C(=O)OC property_measured="composite z-score" quantitative_result=1.84
compound=COC(=O)c1c2oc(c1C(=O)OC)C(=O)N(Cc1ccccc1)Cc1cn(nn1)C[C@H](Cc1ccccc1)NC(=O)N[C@H](CO)CC2 property_measured="composite z-score" quantitative_result=0.346
compound=COc1ccc([Si](C)(C)[C@@H]2[C@@H](CC(=O)N3Cc4ccccc4C[C@H]3CO)O[C@]3(C(=O)N(Cc4cccc(N5C(=O)c6cccc7cccc5c67)c4)c4ccccc43)[C@H]2C)cc1 property_measured="composite z-score" quantitative_result=1.19
compound=C=C(CCCC)/C(=C/C[C@@H](OC(=O)c1ccncc1)c1ccccc1OCCO)c1cnc2ccccc2c1 property_measured="composite z-score" quantitative_result=2.17
compound=CC(C)N1C(=O)c2ccccc2[C@@H](C(=O)NC2CC2)[C@@H]1c1ccc(CO)cc1 property_measured="composite z-score" quantitative_result=0.531
compound=COC(=O)C(CC#Cc1ccc2c(c1)[C@]1(C(=O)N2)[C@H](C(=O)N2CCN(c3ncccn3)CC2)[C@H]2C(=O)O[C@H](c3ccccc3)[C@H](c3ccccc3)N2[C@@H]1c1ccc(OCCO)cc1)C(=O)OC property_measured="composite z-score" quantitative_result=2.23
compound=COC(=O)[C@@]1(Cc2ccc(F)cc2)[C@H]2c3cc(C(=O)N4CCCC4)n(CCN4CNCC4=O)c3C[C@H]2CN1C(=O)c1ccccc1 property_measured="composite z-score" quantitative_result=-0.164
compound=CCOC(=O)C1=CC[C@@H](c2cccc(Cl)c2)N(S(=O)(=O)c2ccc(C)cc2)C1 property_measured="composite z-score" quantitative_result=-0.327
compound=COCCCNC(=O)[C@@]1(Cc2ccccc2N=[N+]=[N-])COC(c2ccc(OCCCO)cc2)=N1 property_measured="composite z-score" quantitative_result=-0.676
compound=C=C(/C(=C/C[C@H](OC(C)=O)c1ccccc1OCCO)c1cc(C(=O)OC)ccc1OC)C(C)C property_measured="composite z-score" quantitative_result=1.4
compound=O=C1O[C@H](c2ccccc2)[C@H](c2ccccc2)N2[C@H]1[C@@H](C(=O)O)[C@]1(C(=O)Nc3ccc(C#CC4=CCCCC4)cc31)[C@H]2c1ccc(O)cc1 property_measured="composite z-score" quantitative_result=1.22
compound="Cn1cccc1C(O)C1C=CC2C(=O)NC(=O)C2N1Nc1ccc(Cl)cc1Cl (centres undefined)" property_measured="composite z-score" quantitative_result=-0.269
compound=C=CCNC(=O)[C@H]1[C@@H]2C(=O)O[C@@H](c3ccccc3)[C@@H](c3ccccc3)N2[C@@H](c2ccc(O)cc2)[C@]12C(=O)Nc1ccc(C#CC3(O)CCCCCC3)cc12 property_measured="composite z-score" quantitative_result=1.13
compound="CC(CO)N1C(=O)[C@@H]2[C@H]3C(=O)OCC=C[C@H]3OC23C=CCN(C(C)(C)C)C(=O)[C@@H]13 (some centres undefined)" property_measured="composite z-score" quantitative_result=-0.405
